These data points were gathered from the supplement of paper PMC12645437.

Biological target: T1, CRBN, Q96SW2;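 note: pooled lentiviral library of zinc finger degron-EGFP fusions in mCherry-positive Jurkat cells, FACS-sorted after compound exposure, with degron abundance counted by next-generation sequencing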
T1 chain: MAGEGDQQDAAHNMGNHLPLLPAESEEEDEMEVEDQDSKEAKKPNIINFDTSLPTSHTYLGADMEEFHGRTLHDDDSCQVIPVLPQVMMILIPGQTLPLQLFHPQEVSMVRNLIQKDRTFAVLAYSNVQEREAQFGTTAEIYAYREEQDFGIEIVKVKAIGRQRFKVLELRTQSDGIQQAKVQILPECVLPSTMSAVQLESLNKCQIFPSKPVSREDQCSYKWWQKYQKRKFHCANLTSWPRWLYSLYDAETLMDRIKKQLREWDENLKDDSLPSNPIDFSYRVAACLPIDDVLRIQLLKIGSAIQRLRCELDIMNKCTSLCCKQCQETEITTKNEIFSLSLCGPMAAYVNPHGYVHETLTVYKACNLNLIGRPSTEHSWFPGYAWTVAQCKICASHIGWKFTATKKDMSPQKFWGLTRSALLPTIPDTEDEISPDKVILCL
Test: log2 fold change of degron read counts, EGFP-low vs EGFP+ sorted cells (limma voom), compound-induced degradation; higher = more compound-induced degradation of the degron-EGFP fusion; degrons are variants of IKZF1/3 zinc finger 2; compound dose not given here
Conditions: Jurkat; 18 h; compound: compound 33 (diphenyl IMiD analogue)
Over roughly 8,300 sequences, “log2 fold change of degron read counts, EGFP-low vs EGFP+ sorted cells (limma voom), compound-induced degradation” has its median near -1.1; the highest 2% begin near 3.2. What follows is part of a selection rich in the highest values, with near analogues and random picks from the rest.
Assign yes to entries whose log2 fold change of degron read counts meets or exceeds 2; assign no to the rest.

sequence_data="LCCPICGFPCTQKGNLLRHIKL [46L_47C_49P_50I_52G_53F_54P_55C_67L_, Q9UKT9]" category_label=no
sequence_data="LFCPICGFRCTQKGNLLRHIKL [46L_47F_49P_50I_52G_53F_54R_55C_67L_, Q9UKT9]" category_label=no
sequence_data="LRCPICGFPCTQKGNLLRHIKL [46L_47R_49P_50I_52G_53F_54P_55C_67L_, Q9UKT9]" category_label=yes
sequence_data="LSCPICGFRCTQKGNLLRHIKL [46L_47S_49P_50I_52G_53F_54R_55C_67L_, Q9UKT9]" category_label=no
sequence_data="FRCDVCGAEFTQKGNLLRHIKL [46F_47R_49D_50V_52G_53A_54E_55F_67L_, Q9UKT9]" category_label=no
sequence_data="LACPICGFRCTQKGNLLRHIKL [46L_47A_49P_50I_52G_53F_54R_55C_67L_, Q9UKT9]" category_label=no
sequence_data="LKCPICGFRCTQKGNLLRHIKL [46L_47K_49P_50I_52G_53F_54R_55C_67L_, Q9UKT9]" category_label=no
sequence_data="LVCPICGFECTQKGNLLRHIKL [46L_47V_49P_50I_52G_53F_54E_55C_67L_, Q9UKT9]" category_label=no
sequence_data="FSCDQCGALFTQKGNLLRHIKL [46F_47S_49D_50Q_52G_53A_54L_55F_67L_, Q9UKT9]" category_label=no
sequence_data="FYCEICGANFTQKGNLLRHIKL [46F_47Y_49E_50I_52G_53A_54N_55F_67L_, Q9UKT9]" category_label=yes
sequence_data="LNCPICGFRCTQKGNLLRHIKL [46L_47N_49P_50I_52G_53F_54R_55C_67L_, Q9UKT9]" category_label=no
sequence_data="LVCPICGFTCTQKGNLLRHIKL [46L_47V_49P_50I_52G_53F_54T_55C_67L_, Q9UKT9]" category_label=yes
sequence_data="LHCPICGFRCTQKGNLLRHIKL [46L_47H_49P_50I_52G_53F_54R_55C_67L_, Q9UKT9]" category_label=no
sequence_data="LRCPICGFTCTQKGNLLRHIKL [46L_47R_49P_50I_52G_53F_54T_55C_67L_, Q9UKT9]" category_label=no
